Entry source: patent US11279733B2

# Tested on: E. coli ATCC 25922
# setup.conditions: ATCC 25922
# Protocol: Bacteria were either obtained from American Type Culture Collection (ATCC; Manassas, Va., USA) or independent academic clinical isolate collections, as listed in Table 18 below. Bacteria were cultured in Nutrient broth (NB; Bacto Laboratories, catalogue No. 234000) or Mueller Hinton broth (MHB; Bacto Laboratories, catalogue No. 211443) at 37° C. overnight with shaking (˜180 RPM). […]
Starred links: 1 amine or outer side, 2 acyl side, 3 side chain; linkers in the order of their positions; H or OH if unused. Positions of bridges follow the written chain, without caps; N, C: chain ends. Non-standard residues stand in square brackets, D forms with d. Residues, ends and D or L forms follow the SMILES beside them. *: point of attachment. Decanoyl(3R-OH) = CCCCCCC[C@@H](O)CC(=O)*; dBip = N[C@H](Cc1ccc(-c2ccccc2)cc1)C(=O)O; 1Nal = N[C@@H](Cc1cccc2ccccc12)C(=O)O; 2Nal = N[C@@H](Cc1ccc2ccccc2c1)C(=O)O; dIgl = N[C@@H](C(=O)O)C1Cc2ccccc2C1; azaLeu = CC(C)CN(N[*:1])C(=O)[*:2]; azaDab = NCCN(N[*:1])C(=O)[*:2]; X1 = CCCCCCCN1CCC(C(=O)*)CC1; Decanoyl = CCCCCCCCCC(=O)*; dDab = NCC[C@@H](N)C(=O)O; dDap = NC[C@@H](N)C(=O)O; Dab = NCC[C@H](N)C(=O)O
Parameter: MIC E. coli ATCC 25922. Scope: all listed entries.
Could you give the number and then its unit, please?

Worked cases, answers included:
{"compound": "CCCCCCCCCC(=O)N[C@H](CCN)C(=O)N[C@H]1CCNC(=O)[C@H](CC(C)C)NC(=O)[C@H](CCN)NC(=O)[C@H](CCN)NC(=O)[C@H](CC(C)C)NC(=O)[C@@H](Cc2ccccc2)NC(=O)[C@H](CCN)NC1=O [compound 5017] (Decanoyl-[dDab][Dab][Dab][dF]L[Dab][Dab]L; lactam 2-C)", "MIC E. coli ATCC 25922": "4 µg/mL"}
{"compound": "CCCCCCC[C@@H](O)CC(=O)N[C@H](CN)C(=O)N[C@H]1CCNC(=O)[C@H](Cc2c[nH]c3ccccc23)NC(=O)[C@H](CCCNC(=N)N)NC(=O)[C@H](CCCCN)NC(=O)[C@H](CC(C)C)NC(=O)[C@@H](C2Cc3ccccc3C2)NC(=O)[C@H](CCN)NC1=O [compound 8896] ({Decanoyl(3R-OH)}-[dDap][Dab][Dab][dIgl]LKRW; lactam 2-C)", "MIC E. coli ATCC 25922": "2 µg/mL"}
{"compound": "CCCCCCC[C@@H](O)CC(=O)N[C@H](CCN)C(=O)N[C@H]1CCNC(=O)[C@H](CC(C)C)NC(=O)N(CCN)NC(=O)[C@H](CCN)NC(=O)[C@H](CC(C)C)NC(=O)[C@@H](Cc2ccccc2)NC(=O)[C@H](CCN)NC1=O [compound 8782] ({Decanoyl(3R-OH)}-[dDab][Dab][Dab][dF]L[Dab][azaDab]L; lactam 2-C)", "MIC E. coli ATCC 25922": "16 µg/mL"}
{"compound": "CCCCCCC[C@@H](O)CC(=O)N[C@H](CCN)C(=O)N[C@H]1CCNC(=O)[C@H]([C@@H](C)O)NC(=O)[C@H](CCNC(=O)[C@@H](N)CCCNC(=N)N)NC(=O)[C@H](CCN)NC(=O)[C@H](CC(C)C)NC(=O)[C@@H](Cc2ccccc2)NC(=O)[C@H](CCN)NC1=O [compound 5603] ({Decanoyl(3R-OH)}-[dDab][Dab][Dab][dF]L[Dab][Dab](Arg)T; lactam 2-C)", "MIC E. coli ATCC 25922": "32 µg/mL"}
{"compound": "CCCCCCC[C@@H](O)CC(=O)N[C@H](CCN)C(=O)N[C@H]1CCNC(=O)[C@H](CC(C)C)NC(=O)[C@H](CCN)NC(=O)[C@H](CCN)NC(=O)[C@H](CC(C)C)NC(=O)[C@@H](Cc2ccc(-c3ccccc3)cc2)NC(=O)[C@H](CCN)NC1=O [compound 5010] ({Decanoyl(3R-OH)}-[dDab][Dab][Dab][dBip]L[Dab][Dab]L; lactam 2-C)", "MIC E. coli ATCC 25922": "2 µg/mL"}

Ask: Which MIC E. coli ATCC 25922 value belongs to CCCCCCC[C@@H](O)CC(=O)N[C@H](CCN)C(=O)N[C@H]1CCNC(=O)[C@H](Cc2c[nH]c3ccccc23)NC(=O)[C@H](CCN)NC(=O)[C@H](CCN)NC(=O)[C@H](CC(C)C)NC(=O)[C@@H](Cc2c[nH]c3ccccc23)NC(=O)[C@H](CCN)NC1=O [compound 8127] ({Decanoyl(3R-OH)}-[dDab][Dab][Dab][dW]L[Dab][Dab]W; lactam 2-C) ?
Reply: 2 µg/mL

Ask: Okay, and CCCCCCC[C@@H](O)CC(=O)N[C@H](CCN)C(=O)N[C@H]1CCNC(=O)[C@H](Cc2ccc3ccccc3c2)NC(=O)[C@H](CCN)NC(=O)[C@H](CCN)NC(=O)[C@H](CC(C)C)NC(=O)[C@@H](Cc2ccccc2)NC(=O)[C@H](CCN)NC1=O [compound 8908] ({Decanoyl(3R-OH)}-[dDab][Dab][Dab][dF]L[Dab][Dab][2Nal]; lactam 2-C) ?
Reply: 2 µg/mL

Ask: Query CCCCCCC[C@@H](O)CC(=O)N[C@H](CCN)C(=O)N[C@H]1CCNC(=O)[C@H](Cc2cccc3ccccc23)NC(=O)[C@H](CCN)NC(=O)[C@H](CCN)NC(=O)[C@H](CC(C)C)NC(=O)[C@@H](Cc2ccccc2)NC(=O)[C@H](CCN)NC1=O [compound 8909] ({Decanoyl(3R-OH)}-[dDab][Dab][Dab][dF]L[Dab][Dab][1Nal]; lactam 2-C) next
Reply: 2 µg/mL

Ask: Please give the result for CCCCCCC[C@@H](O)CC(=O)N[C@H](CCN)C(=O)N[C@H]1CCNC(=O)[C@H](CC(C)C)NC(=O)[C@H](CCN)NC(=O)[C@H](CCN)NC(=O)N(CC(C)C)NC(=O)[C@@H](Cc2ccccc2)NC(=O)[C@H](CCN)NC1=O [compound 8803] ({Decanoyl(3R-OH)}-[dDab][Dab][Dab][dF][azaLeu][Dab][Dab]L; lactam 2-C) too.
Reply: 2 µg/mL

Ask: Try this compound next: CCCCCCCN1CCC(C(=O)N[C@H](CCN)C(=O)N[C@H]2CCNC(=O)[C@H](CC(C)C)NC(=O)[C@H](CCN)NC(=O)[C@H](CCN)NC(=O)[C@H](CC(C)C)NC(=O)[C@@H](Cc3ccccc3)NC(=O)[C@H](CCN)NC2=O)CC1 [compound 6524] (X1-[dDab][Dab][Dab][dF]L[Dab][Dab]L; lactam 2-C)
Reply: 32 µg/mL

Ask: Do the same for CCCCCCC[C@@H](O)CC(=O)N[C@H](CCN)C(=O)N[C@H]1CCNC(=O)[C@H]([C@@H](C)O)NC(=O)[C@H](CCN)NC(=O)[C@H](CCNC(=O)[C@@H](N)CCCNC(=N)N)NC(=O)[C@H](CC(C)C)NC(=O)[C@@H](Cc2ccccc2)NC(=O)[C@H](CCN)NC1=O [compound 6656] ({Decanoyl(3R-OH)}-[dDab][Dab][Dab][dF]L[Dab](Arg)[Dab]T; lactam 2-C) please
Reply: 2 µg/mL
